// provenance: PubChem BioAssay AID743417

- System: Clone20 osteoblast Shn3 3'UTR firefly luciferase, 24 h
- method notes: Shn3 3'UTR reporter inhibitors, dose response, cell-based, Clone20 osteoblasts, luminescence, dry powder, set 2 (AID 743417)
Inconclusive results are not listed.
endpoint name: AC50

molecule=O=C(c1ccoc1)N1CCN(c2cc(-c3cccc(F)c3)nc3cc(-c4cccc(Cl)c4)nn23)CC1 result="9.78 µM"
molecule=CS(=O)(=O)c1ncc(Cl)c(C(=O)Nc2ccc(N3CCOCC3)cc2)n1 result="1.21 µM"
molecule=CN(C)S(=O)(=O)c1cccc(NC(=O)c2cccc(S(=O)(=O)N3CCc4ccccc43)c2)c1 result="3.92 µM"
molecule=COc1ccc(CNC(=O)c2cccc3c(-c4cccnc4)coc23)cc1OC result="0.9 µM"
molecule=COc1ccc(-n2nnnc2-c2cnc(N3CCCC3)nc2C(F)(F)F)cc1 result="4.75 µM"
molecule=COc1ccc(CNCCc2ccc(Cl)cc2)cc1OCc1ccccc1 result="5.59 µM"
molecule=CCOc1cc(CNCCc2ccc(S(N)(=O)=O)cc2)ccc1OCc1ccccc1 result="2.44 µM"
molecule=Cc1ccc(CNc2nc(NCC3CC3)nc3ccsc23)c(C)c1 result="3.95 µM"

In: Can you look up the measured AC50 of `COc1ccc(OCc2cccc(C(=O)O)c2)cc1` for me?
Out: 1.39 µM

In: Entry CC1=C(C(=O)OC2CCCCC2)C(c2cccnc2)n2nnnc2N1 (configuration not stated) : reported AC50 = ?
Out: 3.23 µM

In: Return reported AC50; argument: `CCN(CC)S(=O)(=O)c1cc(NC(=O)CNc2cccc(S(=O)(=O)N3CCCC3)c2)ccc1C`
Out: 0.648 µM

In: Request the reported AC50 associated with `Cc1ccc(Nc2nc(NCc3ccco3)c3ccccc3n2)cc1`
Out: 9.84 µM

In: Using the record for `O=C(NCc1cccnc1)c1ccc(-c2ccc(F)c(F)c2)c2ccoc12` , report its AC50.
Out: 3.48 µM

====

- Test system: Clone20 osteoblast Shn3 3'UTR firefly luciferase, 24 h
- method notes: Shn3 3'UTR reporter inhibitors, dose response, cell-based, Clone20 osteoblasts, luminescence, dry powder, set 2 (AID 743417)
Inconclusive results are not listed.
endpoint name: AC50

chemical_string=COc1cc(C#Cc2c(-c3cncn3C)n(C)c3ccc(-c4ccc(OC)nc4)cc23)cc(OC)c1 endpoint_name=AC50 result="20500 nM"
chemical_string=CCSc1nc2ccccc2n1C(=O)/C=C/c1ccc(OC)c(OC)c1 endpoint_name=AC50 result="962 nM"
chemical_string=Cc1ccc2c(c1)c(C1=c3ccccc3=NC1=O)c(O)n2C endpoint_name=AC50 result="8850 nM"
chemical_string=COCCOc1nc2c(c(=O)n(C)c(=O)n2C)n1Cc1cccc(OC)c1 endpoint_name=AC50 result="2230 nM"

Now for a further compound.
In: What measured AC50 goes with `CN(CC(=O)Nc1cccc(S(=O)(=O)N2CCOCC2)c1)CC(=O)Nc1ccc(Cl)c(C(F)(F)F)c1` ?
Out: 2400 nM

====

- System: Clone20 osteoblast Shn3 3'UTR firefly luciferase, 24 h
- method notes: Shn3 3'UTR reporter inhibitors, dose response, cell-based, Clone20 osteoblasts, luminescence, dry powder, set 2 (AID 743417)
Results filed as inconclusive are left out.
# AC50 per entry

In: Fill blank: measured AC50 of the compound `CCCCn1c(-c2nonc2NC(=O)c2ccccc2Cl)nc2ccccc21` is ____.
Out: 1390 nM

In: Report AC50 for `CCCCc1ccc(NC(=O)C(=O)NCCN2CCN(Cc3ccc([N+](=O)[O-])cc3)CC2)cc1` please.
Out: 1130 nM

In: Look at this compound and give its reported AC50. Cc1ccccc1OCC(O)CNC1CCC(NCC(O)COc2ccccc2C)CC1 (centres undefined)
Out: 4500 nM

In: Tell me the measured AC50 of C#CC(=O)N(c1ccc(OC)cc1OC)C(C(=O)NC1CCCC1)c1cccs1 (centres undefined) , please.
Out: 7120 nM

====

- Tested on: Clone20 osteoblast Shn3 3'UTR firefly luciferase, 24 h
- method notes: Shn3 3'UTR reporter inhibitors, dose response, cell-based, Clone20 osteoblasts, luminescence, dry powder, set 2 (AID 743417)
Inconclusive results are not listed.
Recorded AC50 for the following compounds

Example cases with answers are listed next.
compound=O=c1c2ccccc2sc2ccc(C#CC3(O)CCCCC3)cc12 endpoint_name=AC50 result="< 260 nM"
compound="CC(C)(C)c1ccc(-n2ncc3c2CCCC3NC(=O)C2(C(N)=O)CC2)cc1 (stereo not given)" endpoint_name=AC50 result="589 nM"
compound=Cc1ccc(Oc2ccc(OCC(=O)Nc3ccncc3)cc2)cc1 endpoint_name=AC50 result="1550 nM"
compound=COc1ccccc1N/C(N)=N/c1nc(CSc2ccc(C)cc2)cc(=O)[nH]1 endpoint_name=AC50 result="2950 nM"

In: GET /values?readout=AC50&system=Clone20 osteoblast Shn3 3'UTR firefly luciferase, 24 h&item= `Cc1sc2ncnc(NC3CCN(Cc4ccccc4)CC3)c2c1C`
Out: 1020 nM

In: For the record `Cc1ccnc(SCC(=O)Nc2sc3c(c2C#N)CCCC3)n1` , what value of AC50 is listed for Clone20 osteoblast Shn3 3'UTR firefly luciferase, 24 h?
Out: 955 nM

In: Please tell me: AC50 of CCc1ccc(NC(=O)C2CCN(S(=O)(=O)c3ccc4c(c3)NC(=O)C(C)S4)CC2)cc1 (stereo not given) , system Clone20 osteoblast Shn3 3'UTR firefly luciferase, 24 h?
Out: 7080 nM

In: Short answer please: AC50, Clone20 osteoblast Shn3 3'UTR firefly luciferase, 24 h, entry `O=[N+]([O-])c1cc2c(c(CSc3nnc(Nc4ccccc4)s3)c1)OCOC2`
Out: 3620 nM

In: Report AC50 for `O=C(Nc1ccc2nc3n(c(=O)c2c1)CCCCC3)c1c(F)ccc([N+](=O)[O-])c1F` tested on Clone20 osteoblast Shn3 3'UTR firefly luciferase, 24 h.
Out: 2300 nM

In: Item: `C=C1CC2(OC1=O)c1ccccc1CCc1ccccc12` Test system: Clone20 osteoblast Shn3 3'UTR firefly luciferase, 24 h Read-out: AC50 Value: ?
Out: 1280 nM

====

- System: Clone20 osteoblast Shn3 3'UTR firefly luciferase, 24 h
- method notes: Shn3 3'UTR reporter inhibitors, dose response, cell-based, Clone20 osteoblasts, luminescence, dry powder, set 2 (AID 743417)
Results filed as inconclusive are left out.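 The calls were made as follows: active = compounds lowering the luciferase signal with a fitted half-maximal dose at most twice their top valid dose (cut at about 30 µM in these data); inconclusive = flat fits with moderate signal loss, or poor fits; inactive = the rest.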
Please answer using one outcome listed in active, inactive

Sample answers from the record:
compound=CCOC(=O)c1c2c(n(C)c1C)C(=O)C(=O)c1ccc(Br)cc1-2 assigned_category=active
compound=Cc1c(C(=O)Nc2cccc(C(F)(F)F)c2)oc2ccc(S(=O)(=O)N3CCOCC3)cc12 assigned_category=active
compound=COc1ccccc1-c1cc(C(F)(F)F)nc(S(=O)(=O)CCCC(=O)Nc2cc(C)on2)n1 assigned_category=active
compound=Cc1ccc(OCCN2CCN(c3ncnc4sc(C)c(C)c34)CC2)cc1 assigned_category=active
compound="Cc1c(C(=O)N(Cc2cccc(Br)c2)C2CCS(=O)(=O)C2)oc2ccccc12 (stereo not given)" assigned_category=active
compound=COc1cccc(OCCn2cc(C(C)=O)c3ccccc32)c1 assigned_category=active
compound=COc1ccc(OC)c(NC(=O)COC(=O)c2c3c(nc4ccccc24)CCCC3)c1 assigned_category=active
compound=Cc1ccccc1OCCOC(=O)c1cc(S(=O)(=O)N2CCCCC2)ccc1N1CCOCC1 assigned_category=active

In: What did this assay record as the result for COc1ccc(CC(N)c2csc(NC(=O)Nc3cccc(C(F)(F)F)c3)n2)cc1 (stereo not given) ?
Out: active

In: Could you please tell me the result logged for O=C(c1ccccc1)C(CCC(CN1CCOCC1)C(=O)c1ccccc1)CN1CCOCC1 (stereo not given) in this assay?
Out: active

In: Hi, sorry to bother you, what did the test record for `CC(C)(C)[C@@H]1COC(=O)[C@@H](NC(=O)OCC2c3ccccc3-c3ccccc32)C/C=C\C[C@@H](CC(=O)NCCO)C(=O)N1` ?
Out: active

In: Which outcome was entered for the compound `O=C(Nc1nc(-c2ccccc2)cs1)c1ccc(N2CCOCC2)c([N+](=O)[O-])c1` in this test?
Out: active

In: Which outcome did this test record for the compound COc1cc(OC)c(OC)cc1CCC(C)NCCC(c1ccccc1)c1ccccc1 (stereo not given) ?
Out: active

In: Hi, do you know how `CCn1nc(/C=C/c2ccccc2)nc2c(=O)n(C)c(=O)nc1-2` came out in this test?
Out: active

In: GET /call?item= `CCCS(=O)(=O)Nc1ccc(Nc2c3ccccc3nc3ccccc23)c(OC)c1` returns the recorded outcome of this test.
Out: active

In: I'd appreciate the recorded outcome for `c1ccc(CC2CCN(c3ncnc4sccc34)CC2)cc1` from this test.
Out: active

In: Please share the test call associated with CCCCC(=O)NC(c1ccccc1OC)c1ccc2cccnc2c1O (stereo not given) .
Out: active
